Below, each entry is listed with its recorded LD50.
TEST: in vivo
SETTINGS: mouse, po

SMI	LD50
Cc1ccc(C(=O)c2ccc(CC(=O)NCC(=O)Nc3cccc(Cl)c3)n2C)cc1	> 1500 mg/kg

// LD50 lookup, molecule = COc1ccc(OC)c(NC(=O)CNC(=O)Cc2ccc(C(=O)c3ccc(C)cc3)n2C)c1 , result: > 1500 mg/kg

* * *

Tested on: p-phenylquinone-induced writhing
TEST: p-phenylquinone-induced writhing test (analgesic activity)
Type: in vivo
SETTINGS: i.p., 5 mg/kg, an hour after administration
READOUT_NAME: Protection % (%)
Your answer should be a plain number; it is taken to be in %.

COMPOUND	TESTED_TARGET	MEASUREMENT
Cc1ccc(C(=O)c2ccc(CC(=O)O)n2C)cc1 [Tolmetin Na.2H2 O, reference compound]	p-phenylquinone-induced writhing	16.5
COc1ccc(OC)c(NC(=O)CNC(=O)Cc2ccc(C(=O)c3ccc(C)cc3)n2C)c1	p-phenylquinone-induced writhing	23.0
Cc1ccc(C(=O)c2ccc(CC(=O)NCC(=O)Nc3cccc(Cl)c3)n2C)cc1	p-phenylquinone-induced writhing	18.7

The measured Protection % that Cc1ccc(C(=O)c2ccc(CC(=O)NCC(=O)Nc3cccc(C)c3C)n2C)cc1 showed for p-phenylquinone-induced writhing is 15.3

The measured Protection % that COc1ccccc1NC(=O)CNC(=O)Cc1ccc(C(=O)c2ccc(C)cc2)n1C showed for p-phenylquinone-induced writhing is 29.0

* * *

Tested on: gastric mucosa
TEST: gastric tolerance (ulcerogenic activity)
SETTINGS: 100 mg/kg, orally, four consecutive days; severity scale 0-5
READOUT_NAME: Mean number severity
Reply with the value as a number alone.

// solved cases for Mean number severity follow
MOLECULE	Mean number severity
Cc1ccc(C(=O)c2ccc(CC(=O)NCC(=O)Nc3cccc(Cl)c3)n2C)cc1 [Compound 1b]	2
Cc1ccc(C(=O)c2ccc(CC(=O)NCC(=O)Nc3cccc(C)c3C)n2C)cc1 [Compound 1f]	3
COc1ccc(OC)c(NC(=O)CNC(=O)Cc2ccc(C(=O)c3ccc(C)cc3)n2C)c1 [Compound 1g]	2

// Mean number severity lookup, molecule = Cc1ccc(C(=O)c2ccc(CC(=O)O)n2C)cc1 [Tolmetin Na.2H2 O, reference compound] , result: 3.5

// Mean number severity lookup, molecule = COc1ccccc1NC(=O)CNC(=O)Cc1ccc(C(=O)c2ccc(C)cc2)n1C [Compound 1d] , result: 2

* * *

Below, each entry is listed with its recorded LD50.
TEST: in vivo
SETTINGS: mouse, ip
Your answer should be a plain number; it is taken to be in mg/kg.

SMI	LD50 (mg/kg)
COc1ccc(OC)c(NC(=O)CNC(=O)Cc2ccc(C(=O)c3ccc(C)cc3)n2C)c1	1430

Query compound follows.
// LD50 lookup, compound = Cc1ccc(C(=O)c2ccc(CC(=O)NCC(=O)Nc3cccc(Cl)c3)n2C)cc1 , result: 1370

* * *

Test system: hyperthermia induced by dry purified beer yeast
TEST: antipyretic activity, beer yeast-induced hyperthermia
Format: in vivo, Wistar strain male albino rats
SETTINGS: os, 100 mg/kg, 6 h
READOUT_NAME: Temperature decrease % (%)
Your answer should be a plain number; it is taken to be in %.

COMPOUND	TESTED_TARGET	MEASUREMENT_UNIT	Temperature decrease %
Cc1ccc(C(=O)c2ccc(CC(=O)O)n2C)cc1 [Tolmetin Na.2H2 O, reference compound]	hyperthermia induced by dry purified beer yeast	%	30.9
COc1ccccc1NC(=O)CNC(=O)Cc1ccc(C(=O)c2ccc(C)cc2)n1C	hyperthermia induced by dry purified beer yeast	%	32.0
Cc1ccc(C(=O)c2ccc(CC(=O)NCC(=O)Nc3cccc(Cl)c3)n2C)cc1	hyperthermia induced by dry purified beer yeast	%	33.1
COc1ccc(OC)c(NC(=O)CNC(=O)Cc2ccc(C(=O)c3ccc(C)cc3)n2C)c1	hyperthermia induced by dry purified beer yeast	%	33.0

Query compound follows.
The measured Temperature decrease % that Cc1ccc(C(=O)c2ccc(CC(=O)NCC(=O)Nc3cccc(C)c3C)n2C)cc1 showed for hyperthermia induced by dry purified beer yeast is 32.0
